quantity: melting point (°C)

[A] Cc1nccc(-n2nc(Nc3cccc(Cl)c3F)nc2CC(=O)NC2CCC2)c1C [E192]
[B] COc1cc(Nc2nc(CC(=O)NC3CCC3)n(-c3cc(C)nc(C)c3)n2)cc(C(F)(F)F)c1 [E244]
## Task Select one. Lower melting point: A or B Please reply using the label of the selected record.
## Result A
(A: 187.9 °C, B: 278.4 °C)

[a] CC[C@@H](O)Cc1nc(Nc2ccc(F)c(F)c2)nn1-c1ccnc(C)c1 [E134]
[b] Cc1cc(-n2nc(Nc3cccc(OC(F)(F)F)c3)nc2CC(=O)NC2CCC2)cc(C)n1 [E184]
## Task Select one. Lower melting point: a or b Please reply using the label of the selected record.
## Result a
(a: 175.8 °C, b: 264.4 °C)

[a] CC[C@H](O)Cc1nc(Nc2ccc(F)c(F)c2)nn1-c1ccc(F)cc1 [E28]
[b] CNC(=O)Cc1nc(Nc2cc(F)cc(F)c2)nn1-c1cc(C)nc(C)c1 [E232]
## Task melting point comparison. Which is larger, a or b ? Please reply using the label of the selected record.
## Result b

[P] C[C@H](O)Cc1nc(Nc2ccc(F)c(F)c2)nn1-c1cccc(F)c1 [E17]
[Q] CCNC(=O)Cc1nc(Nc2ccc(F)c(F)c2)nn1-c1cc(C)nc(C)c1 [E167]
## Task Select one. Lower melting point: P or Q Please reply using the label of the selected record.
## Result P
